Reported % Ctrl, ABL1(F317I)-nonphosphorylated values for a set of molecules
- measured_on: kinases (Homo sapiens, UniProt P00519, F317I)
- Construct: purchased Eurofins/DiscoveRx; host or cells: E. coli BL21-derived host (T7 phage display) for most kinases; HEK-293 for the rest
- Sequence (P00519 whole entry F317I): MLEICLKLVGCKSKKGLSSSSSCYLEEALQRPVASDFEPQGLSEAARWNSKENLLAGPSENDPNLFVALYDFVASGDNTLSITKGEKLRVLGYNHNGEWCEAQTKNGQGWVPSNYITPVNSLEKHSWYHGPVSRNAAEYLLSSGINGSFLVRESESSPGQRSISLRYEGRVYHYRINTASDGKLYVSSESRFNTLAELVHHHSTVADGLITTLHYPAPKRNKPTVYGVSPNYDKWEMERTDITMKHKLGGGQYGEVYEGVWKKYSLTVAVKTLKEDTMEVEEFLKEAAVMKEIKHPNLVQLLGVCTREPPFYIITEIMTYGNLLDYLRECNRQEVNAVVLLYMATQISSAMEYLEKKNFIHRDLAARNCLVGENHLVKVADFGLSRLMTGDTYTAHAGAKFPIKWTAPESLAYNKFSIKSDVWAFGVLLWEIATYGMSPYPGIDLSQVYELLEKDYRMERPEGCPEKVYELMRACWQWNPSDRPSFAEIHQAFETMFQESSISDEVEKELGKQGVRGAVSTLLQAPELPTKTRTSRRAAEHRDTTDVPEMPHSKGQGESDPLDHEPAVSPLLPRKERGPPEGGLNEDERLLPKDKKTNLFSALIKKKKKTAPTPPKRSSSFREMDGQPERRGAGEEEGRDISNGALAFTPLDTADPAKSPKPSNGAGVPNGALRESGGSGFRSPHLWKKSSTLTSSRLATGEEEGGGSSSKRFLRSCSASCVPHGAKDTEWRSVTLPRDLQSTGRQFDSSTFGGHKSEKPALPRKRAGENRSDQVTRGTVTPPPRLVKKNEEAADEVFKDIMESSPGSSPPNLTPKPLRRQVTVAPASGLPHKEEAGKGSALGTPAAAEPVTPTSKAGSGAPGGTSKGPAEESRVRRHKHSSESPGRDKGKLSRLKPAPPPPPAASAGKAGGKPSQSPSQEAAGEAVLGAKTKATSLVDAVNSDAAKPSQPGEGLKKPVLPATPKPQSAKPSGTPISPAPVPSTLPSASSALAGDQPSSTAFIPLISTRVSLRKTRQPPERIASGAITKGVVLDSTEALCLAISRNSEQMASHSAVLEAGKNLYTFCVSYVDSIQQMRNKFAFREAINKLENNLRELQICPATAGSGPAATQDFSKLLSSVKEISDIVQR
- method_description: KINOMEscan kinase binding assay (Eurofins/DiscoveRx), % Ctrl
- condition_parameters: 1 μM; ABL1(F317I)-nonphosphorylated
- Method: Kinase binding assays were performed at Eurofins/DiscoveRx using the general KINOMEscan Protocol (Fabian, M. A. et al., “A small molecule-kinase interaction map for clinical kinase inhibitors,” Nat. Biotechnol. 2005, 23(3):329-36). For most assays, kinase-tagged T7 phage strains were prepared in an E. coli host derived from the BL21 strain. […] The kinase concentration in the eluates was measured by qPCR. […]
A bare number is not enough; add the unit after it.

                    structure_smiles_string                               measured_on  recorded_result
0  Cc1cc2c([nH]1)/C=C1\C(=O)Nc3ccc(cc31)-c1cnn(C)c1CN(C)CCN(C)C2=O  kinases (Homo sapiens, UniProt P00519, F317I)         0 % Ctrl
1  Cc1cc2c([nH]1)/C=C1\C(=O)Nc3ccc(cc31)OCCOCCN(C)C2=O  kinases (Homo sapiens, UniProt P00519, F317I)        20 % Ctrl
2  Cc1cc2c([nH]1)/C=C1\C(=O)Nc3ccc(cc31)-c1cnn(C)c1CNCCN(C)C2=O  kinases (Homo sapiens, UniProt P00519, F317I)         0 % Ctrl

# evaluate next
Query string: Give the reported value of % Ctrl, ABL1(F317I)-nonphosphorylated for this record: Cc1cc2c([nH]1)/C=C1\C(=O)Nc3cc(Cl)c(cc31)OCCO[C@@H](C(=O)NC1CCNCC1)CN(C)C2=O
Result string: 84 % Ctrl

---

Reported % Ctrl, FLT3(ITD) values for a set of compounds
- Test system: kinases
- method_description: KINOMEscan kinase binding assay (Eurofins/DiscoveRx), % Ctrl
- condition_parameters: 1 μM; FLT3(ITD)
Give your result in % Ctrl as a bare value.

Please review the entries below; each comes with its answer.
                                   compound  measured_on  recorded_result
0  Cc1cc2c([nH]1)/C=C1\C(=O)Nc3cc(Cl)c(cc31)OCCOCCN(C)C2=O [Ex. 131]      kinases             0.85
1  Cc1cc2c([nH]1)/C=C1\C(=O)Nc3ccc(cc31)-c1cnn(C)c1CNCCN(C)C2=O [Ex. 125]      kinases                0
2  Cc1cc2c([nH]1)/C=C1\C(=O)Nc3cc(Cl)c(cc31)OCCO[C@@H](C(=O)NC1CCNCC1)CN(C)C2=O [Ex. 134]      kinases               35

Query string: Give the reported value of % Ctrl, FLT3(ITD) for this record: Cc1cc2c([nH]1)/C=C1\C(=O)Nc3ccc(cc31)-c1c(C)n[nH]c1CNCCN(C)C2=O [Ex. 127]
Result string: 2.2

Query string: Give the reported value of % Ctrl, FLT3(ITD) for this record: Cc1cc2c([nH]1)/C=C1\C(=O)Nc3cnc(nc31)N(C)CCCOCCN(C)C2=O [Ex.71]
Result string: 91

Query string: Give the reported value of % Ctrl, FLT3(ITD) for this record: Cc1cc2c([nH]1)/C=C1\C(=O)Nc3ccc(cc31)-c1cnn(C)c1CN(C)CCN(C)C2=O [Ex. 126]
Result string: 0.4

Query string: Give the reported value of % Ctrl, FLT3(ITD) for this record: Cc1cc2c([nH]1)/C=C1\C(=O)Nc3ccc(cc31)-c1c(noc1C)COCCN(C)C2=O [Ex. 128]
Result string: 43

Query string: Give the reported value of % Ctrl, FLT3(ITD) for this record: Cc1cc2c([nH]1)/C=C1\C(=O)Nc3ccc(cc31)-c1cnn(C)c1COCCN(C)C2=O [Ex. 124]
Result string: 0

Query string: Give the reported value of % Ctrl, FLT3(ITD) for this record: Cc1cc2c([nH]1)/C=C1\C(=O)Nc3ccc(cc31)OCCOCCN(C)C2=O [Ex.91]
Result string: 2.1

Query string: Give the reported value of % Ctrl, FLT3(ITD) for this record: Cc1cc2c([nH]1)/C=C1\C(=O)Nc3ccc(cc31)-c1ccnn1CCOCCN(C)C2=O [Ex. 41]
Result string: 13

Query string: Give the reported value of % Ctrl, FLT3(ITD) for this record: Cc1cc2c([nH]1)/C=C1\C(=O)Nc3ccc(cc31)CN(C)C(=O)COCCNC2=O [Ex.111]
Result string: 6.9

Query string: Give the reported value of % Ctrl, FLT3(ITD) for this record: Cc1cc2c([nH]1)/C=C1\C(=O)Nc3ccc(cc31)-c1ccnn1CCNCCNC2=O [Ex. 43]
Result string: 100

Query string: Give the reported value of % Ctrl, FLT3(ITD) for this record: Cc1cc2c([nH]1)/C=C1\C(=O)Nc3ccc(nc31)-c1ccccc1OCCCNC2=O [Ex.22]
Result string: 100
